# credit: ChEMBL document CHEMBL3217437

- TARGET UNDER TEST: Tumour suppressor p53/oncoprotein Mdm2 (Homo sapiens, UniProt P04637+Q00987)
- Sequence (P04637 whole entry): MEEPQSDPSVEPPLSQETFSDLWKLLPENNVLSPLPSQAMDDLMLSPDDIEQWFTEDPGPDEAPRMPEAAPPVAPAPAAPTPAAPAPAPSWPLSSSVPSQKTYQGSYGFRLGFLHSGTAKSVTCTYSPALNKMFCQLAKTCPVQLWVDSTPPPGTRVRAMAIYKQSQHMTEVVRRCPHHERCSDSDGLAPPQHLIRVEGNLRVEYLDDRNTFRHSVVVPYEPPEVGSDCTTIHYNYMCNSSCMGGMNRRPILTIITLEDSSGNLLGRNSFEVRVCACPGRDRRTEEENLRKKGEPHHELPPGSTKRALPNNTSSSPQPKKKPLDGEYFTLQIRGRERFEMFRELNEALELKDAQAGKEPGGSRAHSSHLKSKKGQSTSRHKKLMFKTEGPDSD
- Sequence (Q00987 whole entry): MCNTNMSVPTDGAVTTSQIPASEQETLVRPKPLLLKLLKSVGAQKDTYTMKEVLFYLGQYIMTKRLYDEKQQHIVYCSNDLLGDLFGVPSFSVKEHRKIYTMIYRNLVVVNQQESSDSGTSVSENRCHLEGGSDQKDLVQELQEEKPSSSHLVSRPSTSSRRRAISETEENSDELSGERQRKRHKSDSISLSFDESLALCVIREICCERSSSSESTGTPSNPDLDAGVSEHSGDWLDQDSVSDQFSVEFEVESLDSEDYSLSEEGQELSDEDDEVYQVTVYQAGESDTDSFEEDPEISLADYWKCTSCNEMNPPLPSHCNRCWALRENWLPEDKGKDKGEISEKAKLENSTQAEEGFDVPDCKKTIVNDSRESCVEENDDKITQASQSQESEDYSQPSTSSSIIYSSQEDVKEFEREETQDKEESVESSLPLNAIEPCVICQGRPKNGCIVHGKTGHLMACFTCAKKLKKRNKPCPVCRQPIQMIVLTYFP
- ASSAY PROCEDURE: Inhibition of His-tagged p53 interaction to GST-tagged MDM2 (unknown origin)
- Type: protein assay
VALUE KIND: IC50 (nM)
Output spec: scalar in nM, unitless text.

Query: Consider the molecule "CC(C)C1=C(C(=O)N2CCC[C@H]2C(=O)N(C)C)SC2=N[C@@](C)(c3ccc(Cl)nc3)[C@@H](c3ccc(Cl)cc3)N21" . State its measured IC50.
Reply: 14

---

- TARGET UNDER TEST: Tumour suppressor p53/oncoprotein Mdm2 (Homo sapiens, UniProt P04637+Q00987)
- ASSAY PROCEDURE: Inhibition of p53 interaction to MDM2 (unknown origin) by fluorescence polarization assay
- Type: protein assay
VALUE KIND: pKi
In textbook form, pKi equals minus log to base ten of the concentration in mol/L.

Query: Supply reported pKi belonging to this molecule: "CC(C)Cc1cc(CCC(=O)O)ccc1-c1ccc(-c2ccc(OCC(=O)O)c(Cc3ccccc3)c2)c(Cc2ccccc2)c1"
Reply: 6.01
